Source listed as ChEMBL document CHEMBL1201862.

GI50 for assorted compounds
System: UO-31
Test: NCI tumour cell line growth inhibition, 48 h
Active and inactive are the calls of the source. Rule as the data show it: active = GI50 up to about 1.1 µM and inactive = higher.

>>> print(df.to_string())
                                   compound      observed_value
0  C1#Cc2ccccc2OCCOc2ccccc2C#Cc2ccccc2OCCOc2ccccc21  46.7 µM (inactive)
1  Oc1c(C(O)c2ccccn2)ccc2ccccc12 (stereo not drawn)  29.6 µM (inactive)
2  CCC12C=CCN3CCC4(C(=C(C(=O)OC)[C@@H]1O)Nc1ccccc14)C32 (stereo partly drawn)   2.4 µM (inactive)
3  Clc1ccc(Cc2nc3ccccc3nc2-c2cccc(Br)c2)cc1  1.87 µM (inactive)

Qu. Suppose we examine the compound C=CCN1/C(=C2\SC(=S)N(c3ccc(C)cc3)C2=O)Sc2c1ncn(C)c2=O ; what GI50 value has been reported?
Ans. > 100 µM (inactive)

Qu. Suppose we examine the compound CCOC(=O)c1cc(-c2ccc(OC)cc2)c([N+](=O)[O-])n1C ; what GI50 value has been reported?
Ans. > 10 µM (inactive)

Qu. Suppose we examine the compound COc1ccc(C(=O)N/N=C/c2c(C)n(C)n(-c3ccccc3)c2=O)cc1 ; what GI50 value has been reported?
Ans. > 100 µM (inactive)

Qu. Suppose we examine the compound CN1C(C(=O)Nc2ccccn2)=C(O)c2ccccc2S1(=O)=O ; what GI50 value has been reported?
Ans. > 100 µM (inactive)
